Data provenance is patent US20190224279A1.

# test_system: growth factor receptors
# measurement_protocol: cell-based or functional assay
No end group written: not given here.
reported_property: p-Smad1/5/8 (%)
Reply with just the number (in %).

// solved cases for p-Smad1/5/8 (%) follow
binder | numeric_readout
TPTKMSPINMLYFNEKNNIIYGKIPGM (not fully specified) [GFR-binding compound of SEQ ID NO: 94] | 41
VPQALSPISILFIRLKPHQGHLGEMSNMVVR (not fully specified) [GFR-binding compound of SEQ ID NO: 85] | 26
TQVQLEPLTLLYYDENEKVIEQLSNDMVVE (not fully specified) [GFR-binding compound of SEQ ID NO: 71] | 47
APTQLSAISTLYLEIVRKKPLKNYQEMEDH (not fully specified) [GFR-binding compound of SEQ ID NO: 78] | 58
VPTKLSPISILYIDKMGVPTYKQYEEGMSVAE (not fully specified) [GFR-binding compound of SEQ ID NO: 82] | 35
RNVQCRPTQLEPLPIVYYEIVRKKPEQLSNTLEDHLA (not fully specified) [GFR-binding compound of SEQ ID NO: 81] | 41
NDEGLECVPTEERPVQVRKIRIKPHQGQKKATVFLQHNK (not fully specified) [GFR-binding compound of SEQ ID NO: 64] | 36
VPTKLSPISILYIDDMGVPTYKQYEEGMSVAE (not fully specified) [GFR-binding compound of SEQ ID NO: 67] | 40
VPTHHSAISTLYLELAGEKPLKNYQFLQHNK (not fully specified) [GFR-binding compound of SEQ ID NO: 96] | 47
VPARLSPISILYIDAANNVVYKQYEDMVKS (not fully specified) [GFR-binding compound of SEQ ID NO: 93] | 44

Any idea what its p-Smad1/5/8 (%) is? The binder is VPTELSPISILFIVGGKPKVYKQYENMVVE (not fully specified) [GFR-binding compound of SEQ ID NO: 90]
36

What do you have for VPTKLSAISTLYLDLAREEPLKNYQEMVVE (not fully specified) [GFR-binding compound of SEQ ID NO: 87] ?
38

What do you have for NDEGLECVPTEERPVQVRKIRIKPHQGQKKATVFLQHNK (not fully specified) [GFR-binding compound of SEQ ID NO: 79] ?
27

What do you have for TPTKMSPINMLYFNEKNNIIYGKIPGMVVD (not fully specified) [GFR-binding compound of SEQ ID NO: 76] ?
55

What do you have for ASASPSSVPQDLEPLTILYYVGRTPKVEQLSNMVEDH (not fully specified) [GFR-binding compound of SEQ ID NO: 80] ?
34

What do you have for ASASPSSVPQDLEPLTILYYVGRTPKVEQLSNMV (not fully specified) [GFR-binding compound of SEQ ID NO: 65] ?
38

What do you have for RNVQCRPTQLEPLPIVYYEIVRKKPEQLSNTLEDHLA (not fully specified) [GFR-binding compound of SEQ ID NO: 66] ?
38

What do you have for VPTEESNITTQIMRIKPHQGQHIGEMSFLQH (not fully specified) [GFR-binding compound of SEQ ID NO: 84] ?
22

What do you have for VPARLSPISILYIDEMGVPTYKQYEEGMSVAE (not fully specified) [GFR-binding compound of SEQ ID NO: 83] ?
33

What do you have for VPQALNAISTLYFDDSSNVILKKYRNMAVS (not fully specified) [GFR-binding compound of SEQ ID NO: 72] ?
48
